Data origin: PubChem BioAssay (NCI)

The following molecules are listed with their measured log10 of TGI values.
Tested on: UO-31 renal
method-summary: NCI tumour cell line growth inhibition, 48 h
Scale: decimal log of TGI, TGI in µM.

{"molecule": "COc1ccc(/C(=N/O)c2ccccc2C2=Nc3ccccc3C(NCc3ccccc3)O2)cc1C (centres undefined)", "log10 of TGI": 1.83}

Now for a further molecule.
Item Cc1ccc(C)n1-c1ccccc1C1C=Cn2c(=O)oc3c(OC(C)C)c(OC(C)C)c(O)c1c32 (centres undefined) : provide log10 of TGI
1.50

====

Recorded log10 TGI by entry
Tested on: MDA-MB-435
method-summary: NCI tumour cell line growth inhibition, 48 h
Friendly reminder: values = log10 of TGI, unit µM.

{"compound": "COC(=O)N[C@@H]1C[C@H]2CC[C@]1(O[Si](C(C)C)(C(C)C)C(C)C)C(=O)C2", "log10 TGI": 1.62}
{"compound": "O=C(CCCCCNC(=O)c1ccc(Cl)cc1)NO", "log10 TGI": 1.50}
{"compound": "N=C1C=CC(=C(c2ccc(N)cc2)c2ccc(N)cc2)C=C1", "log10 TGI": 1.29}
{"compound": "COc1cc2c(cc1OCC(=O)Nc1ccc(Cl)cc1C(=O)c1ccccc1Cl)N=CC1CCCN1C2=O (stereo unspecified)", "log10 TGI": 1.42}
{"compound": "CCCCCCC(=O)NC1=C(N2CC2)C(=O)C(NC(=O)CCCCCC)=C(N2CC2)C1=O", "log10 TGI": 0.49}
{"compound": "Cc1cc2nc3c(C#N)c(C)c(CCCl)c(Cl)n3c2cc1C", "log10 TGI": 0.69}

Next:
Provide one value: measured log10 TGI of Clc1ccc2c(NC3CCC(N4CCCCC4)CC3)ccnc2c1 (stereo unspecified)
1.45
